- System: ischemia-induced brain damage in the hippocampal CA1 region
- PROTOCOL: Stroke model in rats
- Assay type: in vivo, Male Wistar rats
- RUN_PARAMETERS: 100 mg/kg given orally as a suspension in 2% acacia; mean ± standard error; scale 0 = no damage to 3 = severe damage of CA1 layer
List of Damage Score values.

[
  {
    "COMPOUND": "COc1ccc(CN2CSC(=Cc3cc(C(C)(C)C)c(O)c(C(C)(C)C)c3)C2=O)cc1",
    "Damage Score": "2.3 ± 0.4"
  },
  {
    "COMPOUND": "CN(C)N1C[S+]([O-])C(=Cc2cc(C(C)(C)C)c(O)c(C(C)(C)C)c2)C1=O (stereo not drawn)",
    "Damage Score": "2.3 ± 0.3"
  },
  {
    "COMPOUND": "CN1C[S+]([O-])C(=Cc2cc(C(C)(C)C)c(O)c(C(C)(C)C)c2)C1=O (stereo not drawn)",
    "Damage Score": "1.8 ± 0.4"
  },
  {
    "COMPOUND": "COCCN1CSC(=Cc2cc(C(C)(C)C)c(O)c(C(C)(C)C)c2)C1=O",
    "Damage Score": "2.5 ± 0.2"
  },
  {
    "COMPOUND": "CC(=O)OCCN1CSC(=Cc2cc(C(C)(C)C)c(O)c(C(C)(C)C)c2)C1=O",
    "Damage Score": "1.9 ± 0.4"
  },
  {
    "COMPOUND": "Cc1cc(C=C2SCN(N(C)C)C2=O)cc(C(C)(C)C)c1O",
    "Damage Score": "1.2 ± 0.3 (p<0.05)"
  },
  {
    "COMPOUND": "CN1CS(=O)(=O)C(=Cc2cc(C(C)(C)C)c(O)c(C(C)(C)C)c2)C1=O",
    "Damage Score": "2.1 ± 0.3"
  },
  {
    "COMPOUND": "CN1CSC(Cc2cc(C(C)(C)C)c(O)c(C(C)(C)C)c2)C1=O (stereo not drawn)",
    "Damage Score": "2.1 ± 0.3"
  },
  {
    "COMPOUND": "CSCCN1CSC(=Cc2cc(C(C)(C)C)c(O)c(C(C)(C)C)c2)C1=O",
    "Damage Score": "2.5 ± 0.2"
  },
  {
    "COMPOUND": "CC(C)(C)c1cc(C=C2C(=O)NC[S+]2[O-])cc(C(C)(C)C)c1O (stereo not drawn)",
    "Damage Score": "2.2 ± 0.4"
  },
  {
    "COMPOUND": "CC(C)(C)c1cc(C=C2SCN(CCO)C2=O)cc(C(C)(C)C)c1O",
    "Damage Score": "0.9 ± 0.4 (p<0.001)"
  },
  {
    "COMPOUND": "CN1CCC(=Cc2cc(C(C)(C)C)c(O)c(C(C)(C)C)c2)C1=O",
    "Damage Score": "0.7 ± 0.4 (p=0.039)"
  },
  {
    "COMPOUND": "CC(C)(C)c1cc(C=C2SC(=O)NC2=O)cc(C(C)(C)C)c1O",
    "Damage Score": "1.4 ± 0.3 (p<0.05)"
  },
  {
    "COMPOUND": "CN1CSC(=Cc2cc(C(C)(C)C)c(O)c(C(C)(C)C)c2)C1=O",
    "Damage Score": "0.75 ± 0.26 (p<0.02)"
  },
  {
    "COMPOUND": "CC(C)(C)c1cc(C=C2SCN(CC(N)=O)C2=O)cc(C(C)(C)C)c1O",
    "Damage Score": "1.8 ± 0.4 (p=0.05)"
  }
]
